The reported numbers originate from ChEMBL document CHEMBL5058564.

# Test system: HEK-293T
# testDetails: Incucyte cell viability with HEK293T; further: unitless GR value; below 1 slowed growth and below 0 cell loss
# Assay type: toxicity, cell-based
# conditionNotes: human, 24 h, 10 µM, compound concentration 10 uM, replicate number 2, timepoint 24 hours
observable: Growth Rate

chemicalStructure: C[C@@H](OC[C@@]1(c2ccccc2)CC[C@]2(CCC(=O)N2)CN1)c1cc(C(F)(F)F)cc(C(F)(F)F)c1
assaySystem: HEK-293T
observable: Growth Rate
testValue: 1
//
chemicalStructure: O=C1NCc2ccc3c(-c4cccc(Cl)c4)c[nH]c3c21
assaySystem: HEK-293T
observable: Growth Rate
testValue: -0.07
//
chemicalStructure: COc1ccc(NC(=O)c2ccc(-c3ccc(-c4noc(C)n4)cc3C)cc2)cc1OCCN(C)C.Cl
assaySystem: HEK-293T
observable: Growth Rate
testValue: -0.35
//
chemicalStructure: O=C(O)COc1cccc(-c2ocnc2-c2nc(-c3ccccc3)c(-c3ccccc3)o2)c1
assaySystem: HEK-293T
observable: Growth Rate
testValue: 0.98

---

# System: HEK-293T
# testDetails: Incucyte cell viability with HEK293T; further: unitless GR value; below 1 slowed growth and below 0 cell loss
# Type: toxicity, cell-based
# conditionNotes: human, 12 h, 10 µM, compound concentration 10 uM, replicate number 2, timepoint 12 hours
Entry flag: TRUE if Growth Rate reaches 0.8; FALSE if it does not.

chemicalStructure: Cl.FC(F)(F)c1ccc(N2CCNCC2)nc1Cl
classLabel: TRUE
--
chemicalStructure: Cc1cc(Cn2nnc3c(-c4ccco4)nc(N)nc32)ccc1N
classLabel: TRUE
--
chemicalStructure: Cn1cnc(-c2cc3nccc(Oc4ccc(NC(=S)NC(=O)Cc5ccccc5)cc4F)c3s2)c1
classLabel: FALSE
--
chemicalStructure: CNC(=O)[C@H]1O[C@@H](n2cnc3c(NCc4cccc(I)c4)ncnc32)[C@H](O)[C@@H]1O
classLabel: TRUE
--
chemicalStructure: CC(C)COc1ccc(CNC(=O)N(Cc2ccc(F)cc2)C2CCN(C)CC2)cc1
classLabel: FALSE
--
chemicalStructure: CCCCCCCCc1ccc(CCC(N)(CO)CO)cc1
classLabel: FALSE
--
chemicalStructure: Cc1nc(C#Cc2cccnc2)cs1.Cl
classLabel: TRUE
--
chemicalStructure: Cc1cc(Cn2cnc3c2C[C@@H](C(=O)O)N(C(=O)C(c2ccccc2)c2ccccc2)C3)ccc1N(C)C
classLabel: FALSE
--
chemicalStructure: CC(C)(C)c1cc(NC(=O)Nc2ccc(-c3cn4c(n3)sc3cc(OCCN5CCOCC5)ccc34)cc2)no1
classLabel: FALSE
--
chemicalStructure: CCc1cc2c(cc1-c1cccc(S(=O)(=O)F)c1)C(C)(C)c1[nH]c3cc(C#N)ccc3c1C2=O
classLabel: FALSE

---

# System: U2OS
# testDetails: Incucyte cell viability with U2OS; further: unitless GR value; below 1 slowed growth and below 0 cell loss
# Format: toxicity, cell-based
# conditionNotes: human, 18 h, 10 µM, compound concentration 10 uM, replicate number 1, timepoint 18 hours
Grouping by measured Growth Rate is done with the following cut points: Low (below 0.6), Mid (0.6 to below 0.8), High (0.8 or more)

compound: C[N+]1(C)[C@@H]2C[C@@H](OC(=O)C(O)(c3cccs3)c3cccs3)C[C@H]1[C@@H]1O[C@@H]12.O.[Br-] [TIOTROPIUM BROMIDE]
classLabel: Mid

compound: Cc1nc(C#Cc2cccnc2)cs1.Cl
classLabel: High

compound: c1ccc(NCc2ccc(CNc3ccccn3)cc2)nc1
classLabel: Mid

compound: COc1cc2nc(N3CCN(C(=O)c4ccco4)CC3)nc(N)c2cc1OC.Cl [PRAZOSIN HYDROCHLORIDE]
classLabel: Low

compound: C[C@H](NC(=O)c1c(C(F)F)nn(C)c1Oc1cccc(C(F)(F)F)c1)c1ccc(C(=O)O)cc1
classLabel: High

compound: O=C1NC(Nc2ccccc2)=N/C1=C\c1ccc2c(c1)OCO2
classLabel: Low

compound: C[C@]1(O)CC[C@H]2[C@@H]3CCC4=CC(=O)CCC4=C3C=C[C@@]21C
classLabel: Low

compound: Cn1cc(-c2ccc3occ(-c4cccc(-c5ccncc5)c4)c3n2)cn1
classLabel: Low

compound: CN(C)[C@H]1CN(C2CCc3cccc(F)c32)C[C@@H]1c1ccc(N2CCN(S(C)(=O)=O)CC2)cc1 (some centres not stated)
classLabel: High

compound: CCCCC[C@H](O)/C=C/[C@H]1CCC(=O)[C@@H]1CCCCCCC(=O)O
classLabel: Low

compound: COc1ccc(C(=O)N2CCN(C(=O)/C=C/c3ccc(Br)cc3)CC2)cc1
classLabel: Mid

compound: CCOC(=O)c1c(/C(C#N)=C\N)c2ccc(Cl)c(Cl)c2n1C
classLabel: Low

compound: Cc1ccccc1C#Cc1ccc(CCC(=O)O)cc1
classLabel: Mid

compound: COCCN1CCC(c2cc(CN(C)C(=O)c3cccc(Oc4ccccc4)c3)ccn2)CC1
classLabel: Mid

compound: CN(c1ncccc1CNc1ccnc(-c2cc3cc(Cl)ccc3[nH]2)n1)S(C)(=O)=O
classLabel: Low

compound: COc1cc2nc(N(C)CCCNC(=O)C3CCCO3)nc(N)c2cc1OC.Cl (configuration not stated) [ALFUZOSIN HYDROCHLORIDE]
classLabel: Mid

compound: CC#C[C@@H](CC(=O)O)c1ccc(OCc2cccc(-c3ccc(C(F)(F)F)cc3)c2)cc1
classLabel: High

compound: CN(C)CCN(Cc1ccc(-c2ccc(CNCCc3ccccc3)cc2)cc1)C(=O)CCC1CCCC1.Cl.Cl
classLabel: Low

compound: CC(C)(C)c1ccc(CSc2cnn(C(C)(C)C)c(=O)c2Cl)cc1
classLabel: Mid

compound: COc1c(Nc2ccc(S(C)(=O)=O)nc2C)ncnc1OC1CCN(C(=O)OC(C)C)CC1
classLabel: High

compound: N[C@](CC1c2ccccc2Oc2ccccc21)(C(=O)O)[C@H]1C[C@@H]1C(=O)O
classLabel: High

compound: Cc1nccc(COC(=O)N2C[C@@H]3[C@@H](CNC(=O)c4ccc5[nH]nnc5c4)[C@@H]3C2)n1
classLabel: Mid

compound: COc1ccccc1N1CCN(C[C@@H](C(=O)NC(C)(C)C)c2ccccc2)CC1.Cl.Cl
classLabel: Mid

compound: COc1cc(NC(=O)CCN2CCC(OC(=O)Nc3ccccc3-c3ccccc3)CC2)c(Cl)cc1CNC[C@H](O)c1ccc(O)c2[nH]c(=O)ccc12
classLabel: High
